Sourced from the supplement of paper PMC7877785

- measurementDescription: self-splicing fitness, log relative to wild type (ln ratio); higher = more splicing; Tetrahymena group I intron in knt gene, E. coli kanamycin selection, DiMSum; sequences stand for … in CUCUCU…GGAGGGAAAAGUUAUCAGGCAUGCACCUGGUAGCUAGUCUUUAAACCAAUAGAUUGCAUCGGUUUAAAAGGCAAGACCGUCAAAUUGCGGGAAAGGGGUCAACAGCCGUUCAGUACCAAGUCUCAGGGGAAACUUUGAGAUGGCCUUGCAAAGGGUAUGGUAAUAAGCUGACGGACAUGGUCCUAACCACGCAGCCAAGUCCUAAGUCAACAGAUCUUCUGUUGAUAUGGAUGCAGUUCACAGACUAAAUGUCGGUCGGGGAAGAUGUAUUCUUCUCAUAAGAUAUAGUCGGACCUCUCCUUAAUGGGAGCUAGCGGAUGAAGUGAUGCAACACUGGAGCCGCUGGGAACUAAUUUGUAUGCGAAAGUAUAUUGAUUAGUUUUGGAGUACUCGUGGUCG;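 also: selection with 25 µg/mL kanamycin versus none on LB agar overnight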
- experimentalConditions: 37 °C
I would appreciate it if you labelled entries satisfied when self-splicing fitness (ln) is -0.6 or higher, otherwise not satisfied.

-- ask Dear colleague, could you confirm whether `UCAGAGCAAUAUUACGGCUG` has self-splicing fitness (ln) at or above -0.6?
-- reply satisfied

-- ask Has `GACUAGCAAUAUUACGAGAA` a recorded self-splicing fitness (ln) greater than or equal to -0.6?
-- reply not satisfied

-- ask Dear colleague, could you confirm whether `GCGGAGCAAUAUUACGGCGA` has self-splicing fitness (ln) at or above -0.6?
-- reply not satisfied

-- ask Dear colleague, could you confirm whether `AACUAGCAAUAUUACGCGCG` has self-splicing fitness (ln) at or above -0.6?
-- reply satisfied

-- ask // inclusive: self-splicing fitness (ln) at least -0.6? input: `UCCGAGCAAUAUUACGCAAG`
-- reply not satisfied

-- ask Item `UUAAAGCAAUAUUACGUCAG` with self-splicing fitness (ln) of -0.6 or above?
-- reply satisfied

-- ask Can `UAACAGCAAUAUUACGAUGG` be said to have self-splicing fitness (ln) at or above -0.6?
-- reply not satisfied

-- ask Decide: is the reported value of self-splicing fitness (ln) for `AGCUAGCAAUAUUACGCGAG` equal to or greater than -0.6?
-- reply not satisfied

-- ask Please check the record `UAACAGCAAUAUUACGACGG` and state if its self-splicing fitness (ln) is at or above -0.6.
-- reply satisfied

-- ask Hello, I need to know if `UCGAAGCAAUAUUACGAAAU` has measured self-splicing fitness (ln) not below -0.6. Thanks!
-- reply not satisfied
